B1: ATL3 (parent)
chain: FSFRYQQELEEEIKELYENFCKHN

Variants of: B1
Experiment: protein stability index of a GFP-peptide fusion (GPS, HEK-293T) (PSI 1-6); higher = more stable;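 note: lentivirally expressed fusions sorted by FACS into six bins by GFP to DsRed ratio, PSI derived from sequencing read proportions per bin multiplied by bin number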
Conditions: c terminus: a fixed tail appended
Please note: TRUE applies when protein stability index is 2 or greater, and FALSE applies otherwise.

Look over these answered cases.
S2W	FALSE
L9A	TRUE
C21Q	TRUE
N19R	TRUE
E12Y	TRUE
E11F	FALSE
C21D	TRUE
Q7K	TRUE
E15M	FALSE
Q7Y	TRUE

IN: Tell me whether protein stability index is at least 2 here: `F20P`
OUT: TRUE
